Origin of the recorded values: patent US10703760B2

assay: Approximate solubility of Sample 4 by solvent aliquot addition, visual inspection; post-solubility storage; format: physicochemical; settings: organic solvent or mixture, thermodynamic from solid; dioxane, ambient temperature

>  <smiles_string>
C[C@@]12OC(=O)[C@]1([C@@H](O)[C@@H]1C=CCCC1)NC(=O)[C@@H]2CCCl

>  <solubility>
20 mg/mL

$$$$

====

Assay: Approximate solubility of Sample 4 by solvent aliquot addition, visual inspection; post-solubility storage
Assay type: physicochemical
Conditions: organic solvent or mixture, thermodynamic from solid; anisole, ambient temperature
Method: Weighed samples of MRZ, Sample 4 were treated with aliquots of the test solvents or solvent mixtures at ambient temperature. Complete dissolution of the test material was determined by visual inspection. […] The actual solubility may be greater than the value calculated because of the use of solvent aliquots that were too large or due to a slow rate of dissolution. If complete dissolution was not achieved during the experiment, the solubility is expressed as “less than”. […]
observation_type: solubility (µg/mL)

>  <compound>
C[C@@]12OC(=O)[C@]1([C@@H](O)[C@@H]1C=CCCC1)NC(=O)[C@@H]2CCCl [Sample 4, marizomib]

>  <val>
2000

$$$$

====

test: Approximate solubility of Sample 4 by solvent aliquot addition, visual inspection; post-solubility storage; assay type: physicochemical; settings: organic solvent or mixture, thermodynamic from solid; 20:80 2-MeTHF/MeOAc (v/v), ambient temperature

>  <smiles_string>
C[C@@]12OC(=O)[C@]1([C@@H](O)[C@@H]1C=CCCC1)NC(=O)[C@@H]2CCCl

>  <result_units>
mg/mL

>  <solubility>
34

$$$$

====

experiment: Approximate solubility of Sample 4 by solvent aliquot addition, visual inspection; post-solubility storage; assay type: physicochemical; settings: organic solvent or mixture, thermodynamic from solid; MIBK, ambient temperature

>  <compound>
C[C@@]12OC(=O)[C@]1([C@@H](O)[C@@H]1C=CCCC1)NC(=O)[C@@H]2CCCl [Sample 4, marizomib]

>  <solubility (mg/mL)>
11

$$$$

====

experiment: Approximate solubility of Sample 4 by solvent aliquot addition, visual inspection; post-solubility storage; type: physicochemical; settings: organic solvent or mixture, thermodynamic from solid; 20:80 MEK/MIBK (v/v), ambient temperature

>  <compound>
C[C@@]12OC(=O)[C@]1([C@@H](O)[C@@H]1C=CCCC1)NC(=O)[C@@H]2CCCl [Sample 4, marizomib]

>  <solubility, mg/mL>
12

$$$$

====

Experiment: Approximate solubility of Sample 4 by solvent aliquot addition, visual inspection; post-solubility storage
Assay type: physicochemical
Settings: organic solvent or mixture, thermodynamic from solid; 50:50 acetone/iso-octane (v/v), ambient temperature
Experimental: Weighed samples of MRZ, Sample 4 were treated with aliquots of the test solvents or solvent mixtures at ambient temperature. Complete dissolution of the test material was determined by visual inspection. […] The actual solubility may be greater than the value calculated because of the use of solvent aliquots that were too large or due to a slow rate of dissolution. If complete dissolution was not achieved during the experiment, the solubility is expressed as “less than”. […]

>  <smiles_string>
C[C@@]12OC(=O)[C@]1([C@@H](O)[C@@H]1C=CCCC1)NC(=O)[C@@H]2CCCl

>  <solubility>
12 mg/mL

$$$$

====

test: Approximate solubility of Sample 4 by solvent aliquot addition, visual inspection; post-solubility storage; type: physicochemical; conditions: organic solvent or mixture, thermodynamic from solid; DMSO, ambient temperature

>  <smiles_string>
C[C@@]12OC(=O)[C@]1([C@@H](O)[C@@H]1C=CCCC1)NC(=O)[C@@H]2CCCl

>  <solubility>
> 83 mg/mL

$$$$
